Molecular target: human EphA4-Fc (R&D Systems) (human, UniProt P54764 20-547)
Sequence (P54764 20-547): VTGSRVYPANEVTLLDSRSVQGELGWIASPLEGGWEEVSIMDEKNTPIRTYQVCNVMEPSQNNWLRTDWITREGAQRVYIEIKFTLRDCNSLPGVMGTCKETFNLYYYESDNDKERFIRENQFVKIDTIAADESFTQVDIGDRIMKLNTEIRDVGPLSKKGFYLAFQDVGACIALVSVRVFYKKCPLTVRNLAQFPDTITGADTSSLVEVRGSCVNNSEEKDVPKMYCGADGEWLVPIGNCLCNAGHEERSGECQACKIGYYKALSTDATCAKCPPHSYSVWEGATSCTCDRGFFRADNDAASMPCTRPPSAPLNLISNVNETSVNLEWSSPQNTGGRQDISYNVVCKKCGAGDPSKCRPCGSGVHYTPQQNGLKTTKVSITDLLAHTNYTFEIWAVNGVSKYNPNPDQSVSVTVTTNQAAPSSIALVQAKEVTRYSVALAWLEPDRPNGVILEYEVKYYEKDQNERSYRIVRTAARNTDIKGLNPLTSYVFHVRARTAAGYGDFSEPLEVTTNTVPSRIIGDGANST
Assay: SPR
Assign MET whenever koff does not fall below 0.05 s⁻¹; assign NOT MET whenever it does.

## Task Is koff at least 0.05 s⁻¹? Consider Nb 57 (VHH, biotin on primary amines (EZ link NHS biotin) in the Eph receptor selectivity AlphaScreen only) VHH: QVQLQESGGGLVQPGGSLRLSCAASGFTFSSYYMYWVRQAPGKGLEWVSTINTGGGSTNYADSVKGRFIISRDNAKNTVYLQMNSLKPEDTAVYYCNAFAAGWGPDYWGQGTQVTVSS
## Result MET

## Task API: above_or_equal(metric=koff, cutoff=0.05 s⁻¹) for item Nb 53 (VHH, biotin on primary amines (EZ link NHS biotin) in the Eph receptor selectivity AlphaScreen only) VHH: QVQLQESGGGVVQAGGSLRLSCAASGRAFSSYAMGWFRQAPGTKREMIAAVTRAGTTNYANPVKGRFTISRDDAKNMVYLQMNNLKPEDSAVYYCNAISPLWDEYDFWGPGTQVTVSS
## Result NOT MET

## Task Does koff meet or surpass 0.05 s⁻¹ for Nb 19 (VHH) VHH: QVQLQESGGGLVQPGGSLRLSCAATGRNFNAYSIAWFRQAPGKEREFVASINWSGSNTYYAVAVKGRFTTSRDNAKNTVYLQMNSLKPEDTAVYYCNAFAAGWGPDYWGQGTQVTVSS ?
## Result MET

## Task Form field: koff at least 0.05 s⁻¹? Entry: Nb 22 (VHH, biotin on primary amines (EZ link NHS biotin) in the Eph receptor selectivity AlphaScreen only) VHH: QVQLQESGGGPVRAGESLRLSCTASGRAFSTYTMGWFRQAPGKERELVAVITPGGNTNYADSVKGRFTISRDDAKNTVYLQMNSLKPVDTAVYYCHVVLAVVGTGNEYDVWGQGTQVTVSS
## Result NOT MET

## Task Decide: is the reported value of koff for Nb 39 (VHH, biotin on primary amines (EZ link NHS biotin) in the Eph receptor selectivity AlphaScreen only) VHH: QVQLQESGGGLVQPGGSLKLSCAASGFTFSTYAMSWVRQAPGKGLEWVSRINSGGGYTWHADSVKGRFTISRDNARNTVYLQMNNLKPEDTAVYYCTNLNTGWRPEYWGQGTQVTVSS equal to or greater than 0.05 s⁻¹?
## Result NOT MET
